Experiment: 8-day repeat-dose study, tolerability (blood chemistry, hematology, adverse events) in tumor-bearing dogs
Format: in vivo, dog
Conditions: Dog 4; Post: 30 min after last injection on day 8; 10 mg s.c. once daily for 8 days
Procedure: Previous studies utilizing repeat dosing in mice and rats established safe starting doses for studies using dogs. […] Blood levels of AFPep were measured before and 30 minutes following its administration on the first day and eighth day of treatment with AFPep. […] Tolerability was assessed using the Veterinary Cooperative Oncology Group Common Terminology Criteria for Adverse Events. […]
Where a SMILES comes first, the peptide text is derived from it. [ ]: non-standard residue; d: D form. Hyp = O=C(O)[C@@H]1C[C@@H](O)CN1
measured_metric: Platelets

I have this compound here, CC(C)[C@@H]1NC(=O)[C@@H]2C[C@@H](O)CN2C(=O)[C@H]([C@@H](C)O)NC(=O)[C@H](CCCCN)NC(=O)[C@H](CCC(=O)O)NC(=O)[C@H](CC(N)=O)NC(=O)CNC(=O)[C@@H]2C[C@@H](O)CN2C(=O)[C@H](CC(N)=O)NC1=O [AFPep] (cyclo(EKT[Hyp]VN[Hyp]GN)) , and I need its recorded Platelets.
485 10^3/µL

* * *

Test: 8-day repeat-dose study, tolerability (blood chemistry, hematology, adverse events) in tumor-bearing dogs
Assay type: in vivo, dog
Conditions: Dog 4; Post: 30 min after last injection on day 8; 10 mg s.c. once daily for 8 days
Where a SMILES comes first, the peptide text is derived from it. [ ]: non-standard residue; d: D form. Hyp = O=C(O)[C@@H]1C[C@@H](O)CN1
measured_metric: Total Bilirubin (mg/dL)
Answers are plain numbers, in mg/dL.

Please look up its Total Bilirubin: CC(C)[C@@H]1NC(=O)[C@@H]2C[C@@H](O)CN2C(=O)[C@H]([C@@H](C)O)NC(=O)[C@H](CCCCN)NC(=O)[C@H](CCC(=O)O)NC(=O)[C@H](CC(N)=O)NC(=O)CNC(=O)[C@@H]2C[C@@H](O)CN2C(=O)[C@H](CC(N)=O)NC1=O [AFPep] (cyclo(EKT[Hyp]VN[Hyp]GN))
0.1

* * *

Test: 8-day repeat-dose study, tolerability (blood chemistry, hematology, adverse events) in tumor-bearing dogs
Type: in vivo, dog
Conditions: Dog 6; Post: 30 min after last injection on day 8; 10 mg s.c. once daily for 8 days
Where a SMILES comes first, the peptide text is derived from it. [ ]: non-standard residue; d: D form. Hyp = O=C(O)[C@@H]1C[C@@H](O)CN1
measured_metric: Bilirubin Conj. (mg/dL)
Numbers only, in mg/dL.

Report Bilirubin Conj. for CC(C)[C@@H]1NC(=O)[C@@H]2C[C@@H](O)CN2C(=O)[C@H]([C@@H](C)O)NC(=O)[C@H](CCCCN)NC(=O)[C@H](CCC(=O)O)NC(=O)[C@H](CC(N)=O)NC(=O)CNC(=O)[C@@H]2C[C@@H](O)CN2C(=O)[C@H](CC(N)=O)NC1=O [AFPep] (cyclo(EKT[Hyp]VN[Hyp]GN)) please.
0.1

* * *

Assay: 8-day repeat-dose study, tolerability (blood chemistry, hematology, adverse events) in tumor-bearing dogs
Type: in vivo, dog
Settings: Dog 3; Post: 30 min after last injection on day 8; 10 mg s.c. once daily for 8 days
Where a SMILES comes first, the peptide text is derived from it. [ ]: non-standard residue; d: D form. Hyp = O=C(O)[C@@H]1C[C@@H](O)CN1
measured_metric: Phosphorous (mg/dL)
Answers are plain numbers, in mg/dL.

Phosphorous for CC(C)[C@@H]1NC(=O)[C@@H]2C[C@@H](O)CN2C(=O)[C@H]([C@@H](C)O)NC(=O)[C@H](CCCCN)NC(=O)[C@H](CCC(=O)O)NC(=O)[C@H](CC(N)=O)NC(=O)CNC(=O)[C@@H]2C[C@@H](O)CN2C(=O)[C@H](CC(N)=O)NC1=O [AFPep] (cyclo(EKT[Hyp]VN[Hyp]GN)) ?
4
